# System: glycogen synthase kinase-3 (GSK3A per assay name; protocol says GSK3B)
# ASSAY INFO: compounds binding glycogen synthase kinase-3 – biochemical, small-molecule microarray, 635 nm fluorescence, GSK3A, primary screen (AID 1103); further: the record names both GSK3A and GSK3B
# CONDITION INFO: fluorescence 635 nm, higher = more signal
compounds and their reported composite z-score

As a guide, the following entries are already answered.
- CCOC(=O)C[C@H]1[C@H](OC(=O)c2cc3ccccc3oc2=O)[C@@H](NC(=O)CC(C)C)c2cc(OCCCO)ccc2N1C(=O)c1ccc2ccccc2n1: 0.998
- COc1ccc([Si](C)(C)[C@@H]2[C@@H](CC(=O)N3Cc4ccccc4C[C@H]3CO)O[C@]3(C(=O)N(Cc4ccc(N5C(=O)c6cccc7cccc5c67)cc4)c4ccccc43)[C@H]2C)cc1: 1.27
- CCOC(=O)C[C@H]1[C@H](OC(=O)Cc2ccc3c(c2)OCO3)[C@@H](NC(=O)c2ccc3ccccc3n2)c2cc(OCCCO)ccc2N1C(=O)c1ccc2ccccc2n1: 0.495

get_value(item= OCCCC1=CC(c2ccc(CN3CCCC3)cc2)N(Cc2cc3c(cc2Br)OCO3)CC1 (stereo unspecified) , readout=composite z-score) returns 0.328

get_value(item= COC(=O)C/C=C/C[C@]1(O)C(=O)N(C)c2ccccc21 , readout=composite z-score) returns 0.605

get_value(item= COCCOC(=O)N1C(=O)[C@@]2(c3cc(C#CCCO)ccc31)[C@H](C(=O)Nc1nc3ccccc3s1)[C@H]1C(=O)O[C@H](c3ccccc3)[C@H](c3ccccc3)N1[C@@H]2c1ccc(O)cc1 , readout=composite z-score) returns 1.34

###

# TEST SYSTEM: Fibroblast growth factor 10 (Homo sapiens) (UniProt O15520)
# Sequence (O15520 whole entry, looked up): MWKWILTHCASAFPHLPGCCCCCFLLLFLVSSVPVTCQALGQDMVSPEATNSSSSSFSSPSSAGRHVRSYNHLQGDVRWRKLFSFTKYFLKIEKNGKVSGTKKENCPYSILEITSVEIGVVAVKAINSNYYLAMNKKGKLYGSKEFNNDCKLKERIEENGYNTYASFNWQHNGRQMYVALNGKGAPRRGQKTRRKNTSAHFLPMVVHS
# ASSAY INFO: compounds binding fibroblast growth factor 10 – biochemical, small-molecule microarray, 635 nm fluorescence, primary screen (AID 1102)
# CONDITION INFO: FGF10 binding, fluorescence 635 nm, higher = more signal
OBSERVABLE: composite z-score
Lab note: jot down the number only; don't add units.

As a guide, the following entries are already answered.
* CCOC(=O)C[C@H]1[C@H](OC(=O)Cc2ccc3c(c2)OCO3)[C@@H](NC(=O)c2ccc3ccccc3n2)c2cc(OCCCO)ccc2N1C(=O)c1ccccc1 | 0.445
* C[C@@H]1NC(=O)[C@@H](Cc2ccccc2)NC(=O)[C@@]23C(=O)N[C@@H](Cc4ccccc4)C2[C@H](C)[C@@]2(C)O[C@H]2C3/C=C/C/C=C\CNC1=O (stereo partly specified) | -0.2
* COCCOC(=O)N1C(=O)[C@@]2(c3cc(C#CCCO)ccc31)[C@H](C(=O)Nc1nc3ccccc3s1)[C@H]1C(=O)O[C@H](c3ccccc3)[C@H](c3ccccc3)N1[C@@H]2c1ccc(O)cc1 | 1.16

get_value(item= COCCOC(=O)N1C(=O)[C@@]2(c3cc(C#CCCO)ccc31)[C@H](c1ccc(OCCO)cc1)N1[C@H](c3ccccc3)[C@H](c3ccccc3)OC(=O)[C@H]1[C@@H]2C(=O)Nc1nc2ccccc2s1 , readout=composite z-score) returns 0.898

get_value(item= O=C(O)[C@@H]1C[C@@H]2C(=O)N3CCC[C@H]3C(=O)N2[C@@H]1c1ccc(O)cc1 , readout=composite z-score) returns 0.196

get_value(item= CCCCC(CC)C(O)C1C=CC2C(=O)N(c3ccccc3)C(=O)C2N1Nc1ccccc1F (stereo unspecified) , readout=composite z-score) returns 0.944

###

# ASSAY INFO: forskolin-driven CRE-LacZ activity in PC12 – cell-based, CRE-LacZ reporter, forskolin-stimulated, primary screen (AID 1146);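 further: PC12 cells with 6xCRE LacZ reporter stimulated by forskolin 10 µM; beta-galactosidase reporter signal reflecting CREB driven transcription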
# CONDITION INFO: luminescence, 4.5 h, higher = more signal, called active from +8 up or from −8 down
OBSERVABLE: z-score
Lab note: jot down the number only; don't add units.

As a guide, the following entries are already answered.
* CO[C@H]1O[C@H](CO)[C@@H](OC(=O)Nc2ccc3c(c2)OCO3)[C@H](OC(=O)Nc2ccc3c(c2)OCO3)[C@@H]1OC(=O)Nc1ccc2c(c1)OCO2 | -1.48
* O=C(NCc1ccc(F)cc1)[C@H]1C[C@H]2C(=O)NCC(=O)N2[C@H]1c1ccc(O)cc1 | -0.0067
* CC(C)[Si](C#C[Si](C(C)C)(C(C)C)C(C)C)(O[C@H](c1ccccc1)c1cn(Cc2ccccc2)nn1)C(C)C | -0.166

get_value(item= CCOc1cc(C(O)C2C=CC3C(=O)NC(=O)C3N2Nc2ccc(Cl)cc2Cl)ccc1O (centres undefined) , readout=z-score) returns -0.323

###

# TEST SYSTEM: Fibroblast growth factor 10 (Homo sapiens) (UniProt O15520)
# ASSAY INFO: compounds binding fibroblast growth factor 10 – biochemical, small-molecule microarray, 635 nm fluorescence, primary screen (AID 1102)
# CONDITION INFO: FGF10 binding, fluorescence 635 nm, higher = more signal
OBSERVABLE: composite z-score

As a guide, the following entries are already answered.
- COCCOC(=O)N1C(=O)[C@@]2(c3cc(C#CC4(O)CCCCCC4)ccc31)[C@H](C(=O)N1CCc3cc(OC)c(OC)cc3C1)[C@H]1C(=O)O[C@H](c3ccccc3)[C@H](c3ccccc3)N1[C@@H]2c1ccc(OCCO)cc1: 0.891
- COC(=O)[C@@H]1N=C(c2ccc(OCCCO)cc2)O[C@@H]1c1ccccc1: -1.4
- C=CC[C@@]1(C(=O)NCCCOC)N=C(c2ccc(OCCCO)cc2)O[C@@H]1c1ccccc1: 0.311
- CS(=O)(=O)CCOC(=O)C1=CC(c2ccc(CO)cc2)=CC(C2CC2)N(Cc2sc3ccccc3c2Cl)C=C1C(=O)OCCS(C)(=O)=O (stereo unspecified): 0.686
- CC[C@@H]1C=C(C(=O)O)[C@H](c2ccccc2)N1S(=O)(=O)c1ccc(C)cc1: 0.825
- COc1ccc([Si](C)(C)[C@@H]2[C@@H](CCO)O[C@]3(C(=O)N(Cc4ccccc4)c4ccc(N5CCOC5=O)cc43)[C@H]2C)cc1: 0.24
- CCOC(=O)C[C@H]1[C@H](OC(=O)c2cc3ccccc3oc2=O)[C@@H](NC(=O)c2ccccc2)c2cc(OCCCO)ccc2N1C(=O)c1ccccc1: 0.836
- CCOC(=O)C1=C[C@@H](C(C)(C)C)N(S(=O)(=O)c2ccc(C)cc2)[C@H]1c1cccc2ccccc12: 0.242

get_value(item= CCOc1cc(C(O)C2C=CC3C(=O)NC(=O)C3N2Nc2ccc(Cl)cc2Cl)ccc1O (stereo unspecified) , readout=composite z-score) returns -0.251

get_value(item= CCOC(=O)C1=C[C@@H](c2ccccc2)N(S(=O)(=O)c2ccc(C)cc2)[C@H]1c1ccc(OC)cc1 , readout=composite z-score) returns 0.957

###

# ASSAY INFO: JC-1 mitochondrial signal, unstimulated adipocytes – cell-based, JC-1 fluorescence, 3T3-L1 adipocytes, 24 h, 100 nL compound, profiling panel (AID 1168); further: test concentration not given here
# CONDITION INFO: JC-1 mitochondrial fluorescence, higher = more signal, called active from +8 up or from −8 down
OBSERVABLE: z-score
Lab note: jot down the number only; don't add units.

• C=C[C@@H](CO)N(Cc1ccc(OC)cc1)S(=O)(=O)c1ccc(Br)cc1 = 2.05
• C#CCN(Cc1ccccc1Br)[C@H](/C=C/c1ccccc1)[C@@H](O)Cc1ccccc1 = -0.694

get_value(item= COC(=O)[C@@H]1N=C(c2ccc(OCCCO)cc2)O[C@@H]1c1ccccc1 , readout=z-score) returns -0.652

get_value(item= COc1ccc(C#Cc2ccc3c(c2)[C@]2(C(=O)N3)[C@H](C(=O)O)[C@H]3C(=O)O[C@H](c4ccccc4)[C@H](c4ccccc4)N3[C@@H]2c2ccc(O)cc2)cc1 , readout=z-score) returns -1.15

get_value(item= CC(CO)N1C(=O)[C@]2(C)C3C(=O)OCCC/C=C\[C@H]3OC23C=CCN(c2ccc(Cl)cc2)C(=O)[C@@H]13 (stereo not given in full) , readout=z-score) returns 0.204

###

compounds and their reported z-score
# ASSAY INFO: growth effects on S. cerevisiae YJM789 – YJM789 clinical isolate, OD600, 24 h, basal, primary screen (AID 1089);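 further: growth of clinical yeast isolate S. cerevisiae YJM 789 seeded 1000 cells per well; test concentration not given here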
# CONDITION INFO: higher = more signal, called active from +8 up or from −8 down
Lab note: jot down the number only; don't add units.

As a guide, the following entries are already answered.
• [N-]=[N+]=Nc1ccccc1[C@H]1OC(c2ccc(OCCCO)cc2)=N[C@@]1(Cc1ccccc1)C(=O)NCCN1CCOCC1 = 0.0597
• Cc1ccc(N2C(=O)c3ccccc3[C@@H](C(=O)NCCCN(C)C)[C@@H]2c2ccc(CO)cc2)nc1 = -0.292

--- query ---
get_value(item= O=C(NCCN1CCOCC1)[C@@H]1c2ccccc2C(=O)N(Cc2ccccc2Cl)[C@H]1c1ccc(CO)cc1 , readout=z-score) returns 0.506

###

# TEST SYSTEM: NADPH oxidase 2 (Homo sapiens) (UniProt P04839)
# Sequence (P04839 whole entry, looked up): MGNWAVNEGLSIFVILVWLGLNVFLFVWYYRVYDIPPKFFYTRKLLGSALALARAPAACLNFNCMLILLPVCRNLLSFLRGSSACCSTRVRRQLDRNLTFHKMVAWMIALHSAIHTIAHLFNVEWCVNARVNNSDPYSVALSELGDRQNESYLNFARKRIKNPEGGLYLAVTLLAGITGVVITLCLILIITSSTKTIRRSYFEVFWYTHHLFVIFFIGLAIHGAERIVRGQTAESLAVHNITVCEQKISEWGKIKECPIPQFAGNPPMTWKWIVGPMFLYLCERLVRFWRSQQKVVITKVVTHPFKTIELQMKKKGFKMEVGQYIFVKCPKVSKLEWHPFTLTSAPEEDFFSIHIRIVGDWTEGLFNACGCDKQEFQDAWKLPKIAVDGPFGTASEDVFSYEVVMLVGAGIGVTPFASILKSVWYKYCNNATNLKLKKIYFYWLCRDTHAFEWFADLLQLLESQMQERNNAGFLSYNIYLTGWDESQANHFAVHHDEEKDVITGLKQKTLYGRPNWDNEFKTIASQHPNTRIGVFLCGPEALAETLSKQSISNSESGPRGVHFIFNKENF
# ASSAY INFO: compounds shifting NOX2 Amplex Red fluorescence – cell-based, HEK293-NOX2, PMA-stimulated, NOX inhibitor project, primary screen (AID 1159); further: test concentration not given here
# CONDITION INFO: 45 min, higher = more signal, called active from +8 up or from −8 down
OBSERVABLE: z-score
Lab note: jot down the number only; don't add units.

As a guide, the following entries are already answered.
- CC(C)(C)OC(=O)COc1cccc(C(=O)CCN2CCOCC2)c1: -5.78
- CCCCCCc1nc(Cc2cc(OC)c(OC)c(OC)c2)cc2c1[Si](C(C)C)(C(C)C)OC2: -4.01
- NC(=O)NCC#Cc1ccc2c(c1)[C@]1(C(=O)N2)[C@H](C(=O)N2CCN(c3ncccn3)CC2)[C@H]2C(=O)O[C@H](c3ccccc3)[C@H](c3ccccc3)N2[C@@H]1c1ccc(O)cc1: 1.13
- C[C@@H]1NC(=O)[C@@H](Cc2ccccc2)NC(=O)[C@@]23C(=O)N[C@@H](Cc4ccccc4)C2[C@H](C)[C@@]2(C)O[C@H]2C3/C=C/C/C=C\CNC1=O (stereo partly specified): 0.722
- CCCCC(=C=CC[C@H](O)c1ccc(OCCO)cc1)CCO: -0.649
- C=CCNC(=O)[C@@H]1[C@H]2C(=O)O[C@H](c3ccccc3)[C@H](c3ccccc3)N2[C@H](c2ccccc2OCCO)[C@@]12C(=O)Nc1ccc(C#CCC(C(=O)OC)C(=O)OC)cc12: 0.21
- O=C1C2C=CC(C(O)C3CC=CCC3)N(Nc3ccccc3)C2C(=O)N1c1ccccc1 (stereo unspecified): -3.1
- Cc1ccc(NN2C(C(O)c3c(F)cccc3Cl)C=CC3C(=O)N(C4CCCCC4)C(=O)C32)cc1 (stereo unspecified): -1.41

Item COC(=O)[C@@]1(Cc2ccccc2)[C@H]2c3cc(C(=O)N(C)C)n(Cc4ccc(C)o4)c3C[C@H]2CN1C(=O)c1ccccc1 was tested on NADPH oxidase 2 (Homo sapiens) (UniProt P04839); the reported z-score is -3.27

Item CN(C)C(=O)[C@@]1(Cc2ccccc2CN=[N+]=[N-])N=C(c2ccc(OCCCO)cc2)O[C@H]1c1ccccc1N=[N+]=[N-] was tested on NADPH oxidase 2 (Homo sapiens) (UniProt P04839); the reported z-score is -3.42

Item C#CCN(Cc1ccccc1Br)[C@H](/C=C/c1ccccc1)[C@@H](O)Cc1ccccc1 was tested on NADPH oxidase 2 (Homo sapiens) (UniProt P04839); the reported z-score is -0.193

Item CC(C)[Si](C#C[Si](C(C)C)(C(C)C)C(C)C)(O[C@H](c1ccccc1)c1cn(Cc2ccccc2)nn1)C(C)C was tested on NADPH oxidase 2 (Homo sapiens) (UniProt P04839); the reported z-score is -0.734

Item CCCCNC(=O)c1ccc(C#CC(C)(C)C)c(OC(C)=O)c1 was tested on NADPH oxidase 2 (Homo sapiens) (UniProt P04839); the reported z-score is -0.137
